Target: Monoglyceride lipase (Mus musculus) (UniProt O35678)
Sequence (O35678 whole entry, looked up): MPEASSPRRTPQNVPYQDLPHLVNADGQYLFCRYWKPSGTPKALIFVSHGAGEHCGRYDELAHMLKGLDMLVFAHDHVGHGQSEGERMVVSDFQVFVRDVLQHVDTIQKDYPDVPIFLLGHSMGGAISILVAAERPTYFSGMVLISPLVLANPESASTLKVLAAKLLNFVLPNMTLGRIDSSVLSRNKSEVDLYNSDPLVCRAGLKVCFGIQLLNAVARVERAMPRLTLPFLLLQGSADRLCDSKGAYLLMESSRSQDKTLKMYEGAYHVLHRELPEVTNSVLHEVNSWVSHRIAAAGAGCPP
Experiment: competitive ABPP of pPAFAH versus proteome hydrolases – biochemical, gel-based, FP-Rh fluorescence, complex proteome, SAR compounds, selectivity assay for pPAFAH inhibitor project, SAR follow-up (AID 588774)
Details: MAGL, at 10 µM
Activity calls are given as the source filed them.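 How the source made its calls: active means target enzyme inhibited at least 50% at a set dose, and selective over every off-target enzyme by a set factor; inactive means weaker inhibition or too little selectivity.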
Parameter call: string, one of true for active, false for inactive

Cc1cc(N2CCN(C(=O)Oc3noc4cc(Cl)ccc34)CC2)c2ccccc2n1 ... true
Cc1cc(N2CCN(C(=O)Oc3ccc(C4CCCCC4)cc3)CC2)c2ccccc2n1 ... false
COc1ccc(-c2cnn(C(=O)N3CCN(c4cc(C)nc5ccccc45)CC3)n2)cc1 ... false
Cc1cc(N2CCN(C(=O)n3ncc(-c4ccc([N+](=O)[O-])cc4)n3)CC2)c2ccccc2n1 ... false

Please find the next compound below.
How did this test come out for `Cc1cc(N2CCN(C(=O)Oc3ccc(-n4cccc4)cc3)CC2)c2ccccc2n1` ?
false

====

Biological target: Platelet-activating factor acetylhydrolase (Mus musculus) (UniProt Q60963)
Sequence (Q60963 whole entry, looked up): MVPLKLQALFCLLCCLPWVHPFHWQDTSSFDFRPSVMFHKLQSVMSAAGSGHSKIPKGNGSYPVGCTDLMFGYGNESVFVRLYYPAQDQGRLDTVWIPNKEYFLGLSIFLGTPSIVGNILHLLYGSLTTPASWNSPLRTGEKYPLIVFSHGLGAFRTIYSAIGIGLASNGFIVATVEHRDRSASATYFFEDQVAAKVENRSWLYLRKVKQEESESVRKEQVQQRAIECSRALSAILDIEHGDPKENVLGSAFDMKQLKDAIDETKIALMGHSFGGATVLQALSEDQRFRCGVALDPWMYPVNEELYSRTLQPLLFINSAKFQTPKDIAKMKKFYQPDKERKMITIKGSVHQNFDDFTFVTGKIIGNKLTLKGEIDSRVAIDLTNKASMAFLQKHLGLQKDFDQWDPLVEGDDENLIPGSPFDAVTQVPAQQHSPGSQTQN
Assay: competitive ABPP of pPAFAH versus proteome hydrolases – biochemical, gel-based, FP-Rh fluorescence, complex proteome, SAR compounds, selectivity assay for pPAFAH inhibitor project, SAR follow-up (AID 588774);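 on inhibition: 0% = DMSO-only band intensity and 100% = blank gel background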
Conditions: pPAFAH, inhibition, at 1 µM, stronger effect = higher value
For each of the molecules below, state its inhibition.

Some molecules with recorded inhibition:
Cc1cc(N2CCN(C(=O)n3ncc(-c4ccc(Cl)c(Cl)c4)n3)CC2)c2ccccc2n1 ... 98%
Cc1cc(N2CCN(C(=O)Oc3ccc(-n4cccc4)cc3)CC2)c2ccccc2n1 ... 80%
Cc1cc(N2CCN(C(=O)Oc3ccc([N+](=O)[O-])cc3)CC2)c2ccccc2n1 ... 95%
Cc1cc(N2CCN(C(=O)Oc3noc4cc(Cl)ccc34)CC2)c2ccccc2n1 ... 91%
Cc1cc(N2CCN(C(=O)Oc3ccc(-c4ccccc4)cc3)CC2)c2ccccc2n1 ... 95%

Batch request: inhibition per item, same order as input.
1. Cc1cc(N2CCN(C(=O)Oc3ccc(C(F)(F)F)cc3)CC2)c2ccccc2n1
2. Cc1cc(N2CCN(C(=O)n3oc4cc(Cl)ccc4c3=O)CC2)c2ccccc2n1
3. Cc1cc(N2CCN(C(=O)n3ncc(-c4ccccc4)n3)CC2)c2ccccc2n1
4. Cc1cc(N2CCN(C(=O)n3ncc(-c4ccc(OC(F)(F)F)cc4)n3)CC2)c2ccccc2n1
5. Cc1cc(N2CCN(C(=O)Oc3ccc(C4CCCC4)cc3)CC2)c2ccccc2n1

87%
87%
99%
100%
82%

Batch request: inhibition per item, same order as input.
1. O=C(Oc1noc2cc(Cl)ccc12)N1CCOCC1
2. O=C(Oc1noc2cc(Cl)ccc12)N1CCCCC1

1: 97%; 2: 85%

====

Experiment: competitive ABPP of pPAFAH versus proteome hydrolases – biochemical, gel-based, FP-Rh fluorescence, complex proteome, SAR compounds, selectivity assay for pPAFAH inhibitor project, SAR follow-up (AID 588774)
Details: LYPLA2, anti-targets inhibited, at 10 µM
Recorded Endpoint: anti-target count
Numbers only.

Cc1cc(N2CCN(C(=O)Oc3ccc(C(F)(F)F)cc3)CC2)c2ccccc2n1 ... 1
O=C(N1CCOCC1)n1oc2cc(Cl)ccc2c1=O ... 6
Cc1cc(N2CCN(C(=O)Oc3ccc(-n4cccc4)cc3)CC2)c2ccccc2n1 ... 0
Cc1cc(N2CCN(C(=O)Oc3noc4cc(Cl)ccc34)CC2)c2ccccc2n1 ... 4
Cc1cc(N2CCN(C(=O)n3ncc(-c4ccc(Cl)c(Cl)c4)n3)CC2)c2ccccc2n1 ... 8

Batch request: anti-target count per item, same order as input.
1. Cc1cc(N2CCN(C(=O)Oc3ccc([N+](=O)[O-])cc3)CC2)c2ccccc2n1
2. Cc1cc(N2CCN(C(=O)Oc3ccc(C4CCCCC4)cc3)CC2)c2ccccc2n1
3. Cc1cc(N2CCN(C(=O)Oc3ccc(-c4ccc(Br)cc4)cc3)CC2)c2ccccc2n1
4. Cc1cc(N2CCN(C(=O)Oc3ccc(-c4ccccc4)cc3)CC2)c2ccccc2n1
5. O=C(Oc1noc2cc(Cl)ccc12)N1CCOCC1

[2, 0, 0, 0, 3]

Batch request: anti-target count per item, same order as input.
1. Cc1cc(N2CCN(C(=O)n3ncc(-c4ccc(OC(F)(F)F)cc4)n3)CC2)c2ccccc2n1
2. O=C(Oc1noc2cc(Cl)ccc12)N1CCCCC1
3. Cc1cc(N2CCN(C(=O)n3ncc(-c4ccc([N+](=O)[O-])cc4)n3)CC2)c2ccccc2n1

[9, 2, 9]
